Each recorded value in this set is attributed to patent US20210403591A1.

tested on: T1, mTfR-1 I279A on Expi293 cells (mouse, UniProt Q62351 1-763)
T1 construct: whole, on cells
T1 sequence (Q62351 whole entry I279A): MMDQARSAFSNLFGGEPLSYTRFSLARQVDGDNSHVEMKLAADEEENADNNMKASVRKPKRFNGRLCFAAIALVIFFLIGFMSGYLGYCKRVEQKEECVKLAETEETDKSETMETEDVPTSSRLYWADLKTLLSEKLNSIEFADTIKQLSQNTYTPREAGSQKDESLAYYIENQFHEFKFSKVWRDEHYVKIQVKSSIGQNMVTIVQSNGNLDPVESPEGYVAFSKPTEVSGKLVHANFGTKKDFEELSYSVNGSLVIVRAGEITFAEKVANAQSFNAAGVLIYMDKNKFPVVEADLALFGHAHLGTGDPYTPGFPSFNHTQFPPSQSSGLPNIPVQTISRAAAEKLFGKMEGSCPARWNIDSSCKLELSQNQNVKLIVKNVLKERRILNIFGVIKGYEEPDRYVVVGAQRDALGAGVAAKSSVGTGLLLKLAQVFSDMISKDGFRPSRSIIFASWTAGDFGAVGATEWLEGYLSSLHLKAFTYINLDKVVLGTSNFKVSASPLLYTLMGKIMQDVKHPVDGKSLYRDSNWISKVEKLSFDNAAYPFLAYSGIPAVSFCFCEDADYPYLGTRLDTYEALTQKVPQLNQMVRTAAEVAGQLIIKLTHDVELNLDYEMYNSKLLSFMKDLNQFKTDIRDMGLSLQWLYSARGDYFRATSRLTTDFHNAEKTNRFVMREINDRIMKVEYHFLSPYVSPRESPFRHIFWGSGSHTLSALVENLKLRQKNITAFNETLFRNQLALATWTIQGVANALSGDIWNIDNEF
test name: FACS, transfected Expi293 cells
reported endpoint: % double-positive cells vs WT (%)
Use % as the unit, but write only the number.

In: Given Clone C VNAR-hFc fusion (Fc fusion, not shown: a dimerising Fc or GST, bivalent VNAR-Fc; also called Clone C-hFc) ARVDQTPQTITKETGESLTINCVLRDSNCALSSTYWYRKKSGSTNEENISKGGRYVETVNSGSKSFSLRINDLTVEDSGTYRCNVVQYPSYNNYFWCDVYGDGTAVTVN , state its recorded % double-positive cells vs WT.
Out: 177
